- targetOfAssay: Bromodomain-containing protein 3 (Homo sapiens) (UniProt Q15059)
- Sequence (Q15059 2-726 limits assumed): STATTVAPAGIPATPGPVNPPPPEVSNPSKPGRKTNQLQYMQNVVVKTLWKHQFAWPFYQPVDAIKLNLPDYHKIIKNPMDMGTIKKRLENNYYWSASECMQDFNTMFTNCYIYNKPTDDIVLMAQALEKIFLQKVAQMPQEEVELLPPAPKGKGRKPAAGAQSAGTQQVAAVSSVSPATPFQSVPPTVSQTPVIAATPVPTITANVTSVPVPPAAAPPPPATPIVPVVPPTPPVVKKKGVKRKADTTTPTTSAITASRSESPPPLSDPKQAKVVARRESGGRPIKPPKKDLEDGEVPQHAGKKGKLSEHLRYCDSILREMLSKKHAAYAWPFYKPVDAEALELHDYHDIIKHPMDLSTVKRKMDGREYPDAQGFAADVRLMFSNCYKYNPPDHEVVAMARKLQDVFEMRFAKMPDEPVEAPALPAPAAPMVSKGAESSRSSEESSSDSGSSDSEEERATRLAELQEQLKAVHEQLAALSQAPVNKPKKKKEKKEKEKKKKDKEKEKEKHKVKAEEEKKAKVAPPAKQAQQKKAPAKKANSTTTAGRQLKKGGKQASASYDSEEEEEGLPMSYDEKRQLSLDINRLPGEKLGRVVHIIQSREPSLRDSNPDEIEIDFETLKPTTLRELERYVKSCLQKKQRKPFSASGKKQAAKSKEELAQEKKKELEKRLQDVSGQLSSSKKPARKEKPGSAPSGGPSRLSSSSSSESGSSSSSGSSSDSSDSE
- assayNotes: Binding affinity to human His6-tagged BRD3 bromodomain 1 (P24 to E144 residues) expressed in Escherichia coli BL21(DE3) cells at 200 uM incubated for 30 mins by SYPRO orange staining based fluorescence thermal shift assay
measurementType: ΔTm (°C)
Numbers only, in °C.

Parameters: items (list). Returns: ΔTm for each item.
1. CCN1C(=O)c2cccc3c(NS(=O)(=O)c4ccc(F)cc4)ccc1c23
2. CCN1C(=O)c2cccc3c(S(=O)(=O)NCCCCNC(=O)OC(C)(C)C)ccc1c23
3. CCCCS(=O)(=O)Nc1ccc2c3c(cccc13)C(=O)N2CC
4. CCN1C(=O)c2cccc3c(S(=O)(=O)NCCCN4CCN(C)CC4)ccc1c23
5. CCCNS(=O)(=O)c1ccc2c3c(cccc13)C(=O)N2CC

[7, 5.3, 6.5, 3.9, 6.5]
